Where do the numbers come from? From patent US20120101100A1.

Would you mind telling me the reported inhibition at 1 µM of each entry?
- system-under-test: S. aureus GyrB ATPase (Staphylococcus aureus, UniProt P0A0K8)
- Sequence (P0A0K8 whole entry): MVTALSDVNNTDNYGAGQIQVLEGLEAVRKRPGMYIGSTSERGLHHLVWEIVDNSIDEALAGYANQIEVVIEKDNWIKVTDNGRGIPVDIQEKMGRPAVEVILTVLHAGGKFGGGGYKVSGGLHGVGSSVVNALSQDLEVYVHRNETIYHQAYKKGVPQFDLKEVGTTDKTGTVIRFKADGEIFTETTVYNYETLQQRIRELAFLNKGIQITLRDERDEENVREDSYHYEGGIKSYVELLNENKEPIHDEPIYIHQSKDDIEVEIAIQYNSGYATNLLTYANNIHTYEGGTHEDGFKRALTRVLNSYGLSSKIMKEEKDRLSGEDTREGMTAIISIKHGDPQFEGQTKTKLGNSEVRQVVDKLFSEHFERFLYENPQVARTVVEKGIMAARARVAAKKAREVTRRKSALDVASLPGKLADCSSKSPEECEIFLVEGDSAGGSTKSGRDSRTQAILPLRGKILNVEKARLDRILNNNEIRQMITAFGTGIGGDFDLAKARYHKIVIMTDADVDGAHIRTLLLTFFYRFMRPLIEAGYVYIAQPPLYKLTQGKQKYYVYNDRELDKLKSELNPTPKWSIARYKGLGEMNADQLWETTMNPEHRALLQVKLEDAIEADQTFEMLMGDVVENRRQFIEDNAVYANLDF
- Sequence (P0AES4 whole entry, further chain): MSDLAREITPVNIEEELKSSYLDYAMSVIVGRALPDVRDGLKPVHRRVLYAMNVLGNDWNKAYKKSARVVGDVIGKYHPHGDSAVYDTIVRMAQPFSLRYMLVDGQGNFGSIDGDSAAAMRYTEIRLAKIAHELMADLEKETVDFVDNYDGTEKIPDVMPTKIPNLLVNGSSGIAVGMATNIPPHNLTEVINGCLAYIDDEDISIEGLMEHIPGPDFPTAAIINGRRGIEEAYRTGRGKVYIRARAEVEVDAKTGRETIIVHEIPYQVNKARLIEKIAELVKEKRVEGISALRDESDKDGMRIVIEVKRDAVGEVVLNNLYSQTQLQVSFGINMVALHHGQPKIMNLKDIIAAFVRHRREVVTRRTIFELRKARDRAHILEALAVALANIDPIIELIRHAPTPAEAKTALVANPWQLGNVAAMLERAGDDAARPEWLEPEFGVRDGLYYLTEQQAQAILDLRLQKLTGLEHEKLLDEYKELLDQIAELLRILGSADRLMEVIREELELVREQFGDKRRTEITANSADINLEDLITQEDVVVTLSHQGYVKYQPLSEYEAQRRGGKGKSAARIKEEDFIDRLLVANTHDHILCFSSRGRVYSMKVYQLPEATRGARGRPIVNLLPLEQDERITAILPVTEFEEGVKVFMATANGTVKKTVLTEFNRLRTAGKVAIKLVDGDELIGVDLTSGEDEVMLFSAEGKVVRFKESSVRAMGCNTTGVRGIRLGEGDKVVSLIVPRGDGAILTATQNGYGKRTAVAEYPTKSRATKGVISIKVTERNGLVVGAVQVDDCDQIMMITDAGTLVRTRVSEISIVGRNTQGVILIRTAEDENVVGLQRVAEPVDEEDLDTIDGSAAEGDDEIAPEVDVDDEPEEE
- protocol-summary: S. aureus (SAU) GyrB ATPase inhibition, malachite green phosphate detection (E. coli GyrA + S. aureus GyrB)
- Assay type: biochemical
- condition-label: compound concentration of 1.0 μM unless otherwise noted; average value where assay was carried out more than once; read-out: S. aureus (SAU) GyrB ATPase % Inhibition
Give a bare numeral; the unit % is implied.

Please give the documented inhibition at 1 µM of CCNC(=O)Nc1cc(-c2nc(C(F)(F)F)cs2)c(-c2cncc(-c3nnc(COC(C)=O)o3)c2)cn1 [Example 276]
98

Recall and state the measured inhibition at 1 µM for CCNC(=O)Nc1cc(-c2nc(C(F)(F)F)cs2)c(-c2cncc(-c3nc(C)n[nH]3)c2)cn1 [Example 7] .
90

# return recorded inhibition at 1 µM for input CCNC(=O)Nc1cc(-c2nc(C(F)(F)F)cs2)c(-c2cncc(-c3nnc(N4CC[C@H](O)C4)o3)c2)cn1 [Example 179]
101

Give the value of inhibition at 1 µM reported for the following: CCNC(=O)Nc1cc(-c2nc(C(F)(F)F)cs2)c(-c2cncc(-c3nnc(C(=O)N(C)C)o3)c2)cn1 [Example 274]
99
